These entries and their values trace back to the supplement of paper PMC6555819.

- Tested on: RARb homodimer (NR concentration 270 nM)
- assay-comment: PBM binding z-score (relative to random genomic background probes); higher = stronger binding; sequences stand for … in GC…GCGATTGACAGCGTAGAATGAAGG
Label rule, in plain words: PBM binding z-score of 3 and up is Met, under 3 is Not met.

// query Record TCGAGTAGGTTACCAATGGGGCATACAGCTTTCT ; criterion: PBM binding z-score no lower than 3. Met?
// result Not met

// query Now the sequence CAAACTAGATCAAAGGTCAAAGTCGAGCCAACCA
// result Met

// query Same for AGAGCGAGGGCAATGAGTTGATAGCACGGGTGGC
// result Not met

// query Cool, now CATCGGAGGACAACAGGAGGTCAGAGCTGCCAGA
// result Met

// query Repeat for the following sequence: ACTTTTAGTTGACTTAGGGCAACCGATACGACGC
// result Not met

// query Again, but for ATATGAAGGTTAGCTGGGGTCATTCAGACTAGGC
// result Met

// query Do the same for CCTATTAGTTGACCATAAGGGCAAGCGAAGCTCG please
// result Not met

// query Same lookup for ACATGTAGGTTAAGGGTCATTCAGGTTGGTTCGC , please.
// result Met

// query Next up: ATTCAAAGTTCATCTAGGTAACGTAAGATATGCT
// result Met

// query Follow-up item: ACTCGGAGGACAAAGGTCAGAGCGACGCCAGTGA
// result Met

// query Same question, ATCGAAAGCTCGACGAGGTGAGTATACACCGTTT this time
// result Not met

// query Also check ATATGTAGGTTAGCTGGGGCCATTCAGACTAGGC
// result Not met

// query Next: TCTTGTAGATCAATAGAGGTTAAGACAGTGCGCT
// result Not met

// query For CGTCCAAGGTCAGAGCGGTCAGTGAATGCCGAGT then?
// result Met

// query Could you do the same for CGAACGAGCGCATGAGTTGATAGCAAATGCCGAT , please?
// result Not met

// query Item: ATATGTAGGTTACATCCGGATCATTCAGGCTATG
// result Not met

// query Now consider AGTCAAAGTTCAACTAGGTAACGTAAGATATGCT and answer again.
// result Met

// query Note, next up: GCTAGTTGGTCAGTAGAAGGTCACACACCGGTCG
// result Met

// query Entry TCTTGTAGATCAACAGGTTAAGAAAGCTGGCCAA please
// result Not met

// query Okay, and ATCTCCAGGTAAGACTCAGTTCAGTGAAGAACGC ?
// result Not met

// query Field entry: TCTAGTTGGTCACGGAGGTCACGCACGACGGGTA
// result Met

// query Another sequence to check: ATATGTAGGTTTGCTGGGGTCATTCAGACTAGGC
// result Met

// query Field entry: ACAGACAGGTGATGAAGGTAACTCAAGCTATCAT
// result Not met

// query Another sequence: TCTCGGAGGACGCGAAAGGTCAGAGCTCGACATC
// result Met

// query Okay, and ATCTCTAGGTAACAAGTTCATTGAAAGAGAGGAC ?
// result Not met

----------
- Tested on: PXR homodimer (NR concentration 270 nM)
- assay-comment: PBM binding z-score (relative to random genomic background probes); higher = stronger binding; sequences stand for … in GC…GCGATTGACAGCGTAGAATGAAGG
Cut-off 0.6 on PBM binding z-score, inclusive. At or above means YES; below means NO.

// query Kindly determine if PBM binding z-score recorded for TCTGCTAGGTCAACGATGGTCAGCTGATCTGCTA is above or exactly 0.6.
// result NO

// query What do we get for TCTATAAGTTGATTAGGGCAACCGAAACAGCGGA ?
// result NO

// query What do you get for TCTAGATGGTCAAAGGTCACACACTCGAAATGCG ?
// result YES

// query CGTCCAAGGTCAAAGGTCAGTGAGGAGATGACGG ?
// result YES

// query Now give it for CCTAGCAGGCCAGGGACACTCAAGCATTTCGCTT too.
// result NO

// query Param item: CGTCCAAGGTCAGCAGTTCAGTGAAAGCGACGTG
// result YES

// query How about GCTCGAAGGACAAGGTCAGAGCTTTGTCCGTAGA ?
// result NO

// query What do you have for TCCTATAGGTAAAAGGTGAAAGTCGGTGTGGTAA ?
// result NO

// query What do you get for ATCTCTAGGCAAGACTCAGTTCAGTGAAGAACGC ?
// result NO

// query Moving on to TAGCCTAGGTCAGATTGGGCCAGTATACGCTATA
// result NO

// query Do the same for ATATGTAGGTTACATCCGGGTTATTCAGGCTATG please
// result NO

// query Then this sequence: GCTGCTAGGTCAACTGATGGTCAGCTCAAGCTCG
// result NO

----------
- Tested on: PPARg homodimer (NR concentration 180 nM)
- assay-comment: PBM binding z-score (relative to random genomic background probes); higher = stronger binding; sequences stand for … in GC…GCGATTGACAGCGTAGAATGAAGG
readout-type: PBM binding z-score

// query Which PBM binding z-score value is on record for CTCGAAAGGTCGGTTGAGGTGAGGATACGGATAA ?
// result 1.24

// query Same thing, different sequence: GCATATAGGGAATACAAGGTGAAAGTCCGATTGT
// result 0.308

// query Item: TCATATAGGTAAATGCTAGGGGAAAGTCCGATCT
// result 0.609

// query Try the sequence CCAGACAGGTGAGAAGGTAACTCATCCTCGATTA
// result 0.757

// query And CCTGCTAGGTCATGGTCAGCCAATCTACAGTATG ?
// result 1.85

// query Moving on to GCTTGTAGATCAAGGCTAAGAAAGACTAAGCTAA
// result -1.05

// query Again, but for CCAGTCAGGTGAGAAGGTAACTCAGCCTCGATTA
// result 0.612

// query # repeat for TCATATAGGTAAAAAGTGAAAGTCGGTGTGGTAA
// result 0.986

// query Do the same for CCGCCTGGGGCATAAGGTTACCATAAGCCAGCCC please
// result 0.35

// query What do we get for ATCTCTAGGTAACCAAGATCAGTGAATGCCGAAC ?
// result 0.619

// query Note, next up: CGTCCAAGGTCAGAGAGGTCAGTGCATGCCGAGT
// result 4.89

// query Same thing, different sequence: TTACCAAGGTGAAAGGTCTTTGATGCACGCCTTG
// result 1.16

// query Now this one: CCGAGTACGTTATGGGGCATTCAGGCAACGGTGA
// result -0.751

// query Quick one: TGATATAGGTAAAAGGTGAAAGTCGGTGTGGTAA
// result 1.8

// query Same lookup for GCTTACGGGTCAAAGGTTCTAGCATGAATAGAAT , please.
// result 1.45

// query // same read-out, input: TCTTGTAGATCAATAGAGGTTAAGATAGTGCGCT
// result 0.455

// query // next record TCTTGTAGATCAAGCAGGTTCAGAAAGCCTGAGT
// result -0.265

// query Could you do the same for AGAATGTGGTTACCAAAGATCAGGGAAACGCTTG , please?
// result 0.264

// query What would you report for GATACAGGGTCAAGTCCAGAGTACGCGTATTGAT ?
// result 4.21

// query Next sequence: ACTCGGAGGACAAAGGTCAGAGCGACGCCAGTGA
// result 3.73

// query Consider next the sequence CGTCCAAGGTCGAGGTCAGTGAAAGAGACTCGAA in the same way.
// result 1.43

// query And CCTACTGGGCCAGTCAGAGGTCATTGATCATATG ?
// result 2.3

// query Note, next up: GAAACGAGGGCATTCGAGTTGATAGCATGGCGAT
// result -0.429

// query Try the sequence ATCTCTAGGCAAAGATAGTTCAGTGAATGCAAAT
// result -0.0165

// query What would you report for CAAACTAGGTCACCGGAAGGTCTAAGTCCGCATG ?
// result 2.47

// query What about this sequence? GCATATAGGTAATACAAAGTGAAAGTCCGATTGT
// result -0.267

----------
Give PBM binding z-score for every item shown.
- Test system: VDR homodimer (NR concentration 270 nM)
- assay-comment: PBM binding z-score (relative to random genomic background probes); higher = stronger binding; sequences stand for … in GC…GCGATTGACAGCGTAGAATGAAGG
Hey, just send me the number, nothing else.

// query Sample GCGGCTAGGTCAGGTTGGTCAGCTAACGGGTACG — what was its PBM binding z-score?
// result 0.247

// query Similarly, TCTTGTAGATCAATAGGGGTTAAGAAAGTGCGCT ?
// result 0.671

// query Query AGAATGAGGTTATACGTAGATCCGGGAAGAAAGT next
// result 0.912

// query Field entry: AGTCAGAGTTCAGGACGAGGTAACGTAAAGCACG
// result 3.75

// query Further, for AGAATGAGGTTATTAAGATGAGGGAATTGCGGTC ?
// result 1.16

// query Quick one: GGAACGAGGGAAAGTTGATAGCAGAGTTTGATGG
// result -0.209
